These entries and their values trace back to PubChem BioAssay.

- Tested on: transactivating tegument protein VP16 (Human herpesvirus 1), Gal4-VP16 luciferase reporter
- protocol notes: VP16 transactivation inhibitors, counter-screen for SRC3 inhibitor project, cell-based, luminescence, high throughput (AID 588794)
- condition parameters: mammalian cells, VP16-driven luciferase reporter luminescence; at 3.6 µM
Calls of active or inactive are those of the source. No stated cut-off is given here; in the data, active means inhibition above about 30%; inactive means the rest.
Returns: one label drawn from label 1 (active), label 0 (inactive)

Called result for CCN(CC)S(=O)(=O)c1cccc(NC(=O)C2SC(=Nc3ccc(C)cc3C)C(C(=O)NC(C)COC)=C2N)c1 (stereo unspecified)
label 0

Status in this test for O=C1c2cccc(NCCNCCO)c2C(=O)c2cccc(NCCNCCO)c21 ?
label 1

Which outcome was assigned to CCCCCn1c2c(c(=N)c3ccccc31)CCC2 in this test?
label 1

For COC(=O)c1c(NC(=O)c2cccc([N+](=O)[O-])c2)sc(C(N)=O)c1C , which call appears in the assay record?
label 1

Each molecule tested received a call. Report the one for COc1ccc(OC)c(Cc2cnc3nc(N)nc(N)c3c2C)c1 .
label 0

Any idea what this test logged for CCN(CC)S(=O)(=O)c1ccc(/C=C/C(=O)Nc2ccc(Br)cc2F)cc1 ?
label 1

Assay result, entry CCN(CC)CCNc1ccc(C)c2sc3ccc(O)cc3c(=O)c12 — outcome?
label 1

Entry COc1ccc(NC(=O)c2cc3c(-c4ccc(OC)c(OC)c4)nn(C)c3s2)cc1OC : call = ?
label 0

Status in this test for CN=C1S/C(=C\c2cc(C)n(-c3ccccc3F)c2C)C(=O)N1C ?
label 0

Recorded test call requested for CN1CCCC(n2nc(Cc3ccc(Cl)cc3)c3ccccc3c2=O)CC1 (stereo unspecified)
label 0

What is the recorded call for this molecule in the test? Cn1nc(-c2ccccn2)nc2c(=O)n(C)c(=O)nc1-2
label 1

Hey, what did the test say about COCCn1c(C)cc(C(=O)COC(=O)c2ccccc2Br)c1C ?
label 1

Could you kindly confirm the outcome this assay logged for COc1ccccc1NC(=S)NN=C(C)c1ccccn1 ?
label 1

Would you mind telling me which call this test gave Cc1ccccc1C(=O)N1CCN(c2ccc(NC(=O)c3ccc4c(c3)OCCO4)cc2)CC1 ?
label 1

Short answer needed: outcome of this test for CC(C)c1nc(NCCO)c(C#N)c2c1CCCC2 ?
label 1

Please indicate how the test categorized COc1ccc(/C=C(\C#N)C(=O)OCC(=O)N(C)C2CCS(=O)(=O)C2)cc1 (stereo unspecified) .
label 0

In this assay, the call recorded for CC(=O)N(Cc1ccc(F)cc1)C1=C(NCc2ccccc2)C(=O)c2ccccc2C1=O was what?
label 1

What is the recorded call for this molecule in the test? CC(C)(C)OC(=O)NCC(=O)Oc1cc2oc(=O)cc(-c3ccccc3)c2cc1Cl
label 0

Each molecule tested received a call. Report the one for Cn1nc(C(C)(C)C)cc1C(=O)NCc1ccc(N2CCCC2=O)cc1 .
label 1

GET /call?item= O=C(Nc1ccccc1)NN(C(=O)CCl)c1ccccc1 returns the recorded outcome of this test.
label 0

Hi team, can someone confirm the assay call for CN([C@@H](Cc1ccc(OS(=O)(=O)c2cccc3cnccc23)cc1)C(=O)N1CCN(c2ccccc2)CC1)S(=O)(=O)c1cccc2cnccc12 ?
label 1

What is the recorded call for this molecule in the test? O=C(Nc1ccc(Oc2cccnc2)nc1)c1ccc(C(F)(F)F)cc1
label 1

What outcome does the record of this test show for CC1=C(C(=O)OCc2ccc3c(c2)OCO3)C(c2ccc(Cl)cc2)NC(=O)N1 (stereo unspecified) ?
label 1

I would be grateful if you could indicate the recorded call for Nc1ccccc1SCC(=O)Nc1nc(-c2ccccc2)cs1 .
label 1

Would you mind telling me which call this test gave NC(=O)c1cc(Sc2ccccc2)nc2ccccc12 ?
label 0

Please let me know the test result on file for COc1ccc(C(C(=O)NC2CCCCC2)N(C(=O)CCl)c2ccc(Cl)cc2)cc1 (stereo unspecified) .
label 0
